- Experimental System: T1, human transferrin receptor (recombinant, SPR) (human, UniProt P02786 89-760)
- T1 construct: also called huTfR; human transferrin receptor-biotinylated
- T1 sequence (P02786 89-760 limits assumed): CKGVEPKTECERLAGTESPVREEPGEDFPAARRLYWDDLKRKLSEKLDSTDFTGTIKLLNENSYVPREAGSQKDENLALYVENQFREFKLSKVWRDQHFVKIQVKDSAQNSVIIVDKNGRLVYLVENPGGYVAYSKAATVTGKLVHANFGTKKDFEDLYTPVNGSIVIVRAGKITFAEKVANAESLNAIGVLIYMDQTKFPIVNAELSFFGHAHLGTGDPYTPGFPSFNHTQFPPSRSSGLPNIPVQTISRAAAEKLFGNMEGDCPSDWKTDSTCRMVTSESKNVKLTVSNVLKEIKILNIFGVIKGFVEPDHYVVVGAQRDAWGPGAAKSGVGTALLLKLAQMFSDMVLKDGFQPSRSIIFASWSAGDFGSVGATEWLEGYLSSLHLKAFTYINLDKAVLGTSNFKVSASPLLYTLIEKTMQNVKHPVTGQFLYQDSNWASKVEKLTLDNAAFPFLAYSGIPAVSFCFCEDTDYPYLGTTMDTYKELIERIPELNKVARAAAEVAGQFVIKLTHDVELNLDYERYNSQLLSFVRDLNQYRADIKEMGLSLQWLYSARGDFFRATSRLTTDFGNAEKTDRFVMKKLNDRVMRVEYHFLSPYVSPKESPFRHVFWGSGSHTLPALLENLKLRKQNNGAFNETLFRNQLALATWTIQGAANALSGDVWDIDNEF
- Assay Overview: SPR 25C
Value Type: koff

binder="2/99 VH5/VL9-NYA (antibody, V domains shown) VH: QSMEETGGGLIQPGGSLRLSCAASGFSLSSYAMSWVRQAPGKGLEWVGYIWSGGSTDYADSVKGRFTISRDNSKNTLYLQMNSLRAEDTAVYYCARRYGTSYPDYGDANGFDPWGPGTLVTVSS VL: AIQLTQSPSSLSASVGDRVTITCRASQSISSYLAWYQQKPGKAPKLLIYRASTLASGVPSRFSGSGSGTDFTLTISSLQPEDFATYYCQQNYASSNVDNTFGGGTKVEI" value_type=koff observed_measurement="0.00203 s⁻¹"
binder="2/99 VH23-DANG/VL6 (antibody, V domains shown) VH: QSMQESGPGLVKPSQTLSLTCTVSGFSLSSYAMSWIRQHPGKGLEWIGYIWSGGSTDYASWAKSRVTISKTSTTVSLKLSSVTAADTAVYYCARRYGTSYPDYGDANGFDPWGQGTLVTVSS VL: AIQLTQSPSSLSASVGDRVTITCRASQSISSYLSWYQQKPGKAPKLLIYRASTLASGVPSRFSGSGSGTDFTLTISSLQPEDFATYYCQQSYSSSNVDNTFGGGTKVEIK" value_type=koff observed_measurement="0.00116 s⁻¹"
binder="2/99 VH23-DANG/VL17 (antibody, V domains shown) VH: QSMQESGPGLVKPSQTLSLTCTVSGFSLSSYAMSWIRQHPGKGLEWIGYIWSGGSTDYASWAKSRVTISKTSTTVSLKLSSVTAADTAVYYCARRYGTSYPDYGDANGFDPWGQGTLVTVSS VL: AIQLTQSPSSLSASVGDRVTITCRASQSISSYLAWYQQKPGKAPKLLIYRASTLASGVPSRFSGSGSGTDFTLTISSLQPEDFATYYCQQTYSSSNVDNTFGGGTKVEIK" value_type=koff observed_measurement="0.000694 s⁻¹"
binder="2/99 VH1/VL9-NYA (antibody, V domains shown) VH: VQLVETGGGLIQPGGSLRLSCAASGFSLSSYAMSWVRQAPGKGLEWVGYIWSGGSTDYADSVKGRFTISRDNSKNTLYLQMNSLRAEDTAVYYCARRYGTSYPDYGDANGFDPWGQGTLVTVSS VL: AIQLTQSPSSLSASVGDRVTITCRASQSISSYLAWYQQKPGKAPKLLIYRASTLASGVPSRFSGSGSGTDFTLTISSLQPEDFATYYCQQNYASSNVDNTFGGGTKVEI" value_type=koff observed_measurement="0.00246 s⁻¹"
binder="2/99 VH0(rb)/VL2 (antibody, V domains shown) VH: QSMEESGGRLVTPGTPLTLTCTVSGFSLSSYAMSWVRQAPGKGLEWIGYIWSGGSTDYASWAKGRFTISKTSTTVDLKITSPTTEDTATYFCARRYGTSYPDYGDANGFDPWGPGTLVTVSS VL: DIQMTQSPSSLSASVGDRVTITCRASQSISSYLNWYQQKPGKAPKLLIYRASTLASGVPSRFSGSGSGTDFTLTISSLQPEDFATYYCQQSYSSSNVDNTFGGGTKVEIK" value_type=koff observed_measurement="0.00125 s⁻¹"
binder="2/99 VH0(rb)/VL4 (antibody, V domains shown) VH: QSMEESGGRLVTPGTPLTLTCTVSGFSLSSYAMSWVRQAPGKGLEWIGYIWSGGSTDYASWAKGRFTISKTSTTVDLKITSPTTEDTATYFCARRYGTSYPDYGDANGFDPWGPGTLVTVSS VL: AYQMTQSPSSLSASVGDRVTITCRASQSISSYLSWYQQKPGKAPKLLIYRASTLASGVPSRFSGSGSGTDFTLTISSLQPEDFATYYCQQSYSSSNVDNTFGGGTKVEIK" value_type=koff observed_measurement="0.00136 s⁻¹"
binder="2/99 VH0(rb)/VL1 (antibody, V domains shown) VH: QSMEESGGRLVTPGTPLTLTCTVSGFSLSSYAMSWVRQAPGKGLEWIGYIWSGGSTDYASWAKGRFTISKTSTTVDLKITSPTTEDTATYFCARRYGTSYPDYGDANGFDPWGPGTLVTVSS VL: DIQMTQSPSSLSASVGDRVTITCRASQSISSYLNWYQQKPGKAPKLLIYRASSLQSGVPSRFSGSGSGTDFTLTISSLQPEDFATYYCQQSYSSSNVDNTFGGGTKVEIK" value_type=koff observed_measurement="0.00569 s⁻¹"
binder="2/99 VH23-DANG/VL2 (antibody, V domains shown) VH: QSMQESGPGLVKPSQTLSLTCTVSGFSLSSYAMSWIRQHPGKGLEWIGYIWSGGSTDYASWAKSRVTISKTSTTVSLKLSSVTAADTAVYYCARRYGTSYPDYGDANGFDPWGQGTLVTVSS VL: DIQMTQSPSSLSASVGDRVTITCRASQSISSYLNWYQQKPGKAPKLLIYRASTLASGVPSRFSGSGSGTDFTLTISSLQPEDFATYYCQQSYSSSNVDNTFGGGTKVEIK" value_type=koff observed_measurement="0.000715 s⁻¹"

Entry source: patent US20230212312A1
